# tested.system: Estrogen receptor (Rattus norvegicus) (UniProt P06211+Q62986)
# assay.protocol: Antiestrogenic activity in presence of unlabeled estradiol as mean uterine weight in rats after 0.3 ug dose
# Type: functional
readout.kind: Mean weight (mg)

Below are worked cases with known answers.
CC1=C(c2ccccc2)C(c2ccc(OCCN3CCCC3)cc2)Oc2ccccc21 (stereo not given) = 27
CN(C)CCOc1ccc(C2Oc3ccccc3C=C2c2ccccc2)cc1 (stereo not given) = 36.5
CCC1=C(c2ccccc2)C(c2ccc(OCCN3CCCC3)cc2)Oc2cc(OC)ccc21 (stereo not given) = 40.6
C1=C(c2ccccc2)C(c2ccc(OCCN3CCCC3)cc2)Oc2ccccc21 (stereo not given) = 26.6
C1=C(c2ccccc2)C(c2cccc(OCCN3CCCCC3)c2)Oc2ccccc21 (stereo not given) = 42.2

I = CCCCNCC(O)COc1ccc(C2Oc3ccccc3C=C2c2ccccc2)cc1 (stereo not given)
II = C1=C(c2ccccc2)C(c2ccc(OCCN3CCCCCC3)cc2)Oc2ccccc21 (stereo not given)
In: Higher Mean weight between I and II ? State the label of the item chosen.
Out: I

----------
# tested.system: Estrogen receptor (Rattus norvegicus) (UniProt P06211+Q62986)
# assay.protocol: Relative binding affinity against estrogen receptor(ER)
# Type: protein assay
readout.kind: relative binding affinity (RBA)

Worked cases, relative binding affinity (RBA) given:
COc1ccc2c(c1)OC(c1ccc(OCCN3CCCC3)cc1)C(c1ccccc1)=C2 (stereo not given) = 0.4
C1=C(c2ccccc2)C(c2ccc(OCCN3CCCC3)cc2)Oc2ccccc21 (stereo not given) = 0.5
CCC1=C(c2ccccc2)C(c2ccc(OCCN3CCCC3)cc2)Oc2cc(OC)ccc21 (stereo not given) = 2.1

a = CC1=C(c2ccccc2)C(c2ccc(OCCN3CCCC3)cc2)Oc2ccccc21 (stereo not given)
b = C1=C(c2ccccc2)C(c2ccc(OCCN3CCCCC3)cc2)Oc2ccccc21 (stereo not given)
c = CN(C)CCOc1ccc(C2Oc3ccccc3C=C2c2ccccc2)cc1 (stereo not given)
In: Number of compounds to sort: 3. Sort criterion: relative binding affinity (RBA), ascending. Your task in answering is to list the labels in the requested order.
Out: c, b, a
(c: 0.11, b: 0.3, a: 9.9)

1 = C1=C(c2ccccc2)C(c2ccc(OCCN3CCCCCC3)cc2)Oc2ccccc21 (stereo not given)
2 = Oc1ccc(C2Oc3ccccc3C=C2c2ccccc2)cc1 (stereo not given)
In: Identify the entry with the smaller relative binding affinity (RBA): 1 or 2 . Return value: the label identifying the chosen record.
Out: 2

----------
# tested.system: Anti-estrogen binding site (AEBS) (Homo sapiens) (UniProt Q15125+Q9UBM7)
# assay.protocol: Relative binding affinity against Antiestrogen binding site(AEBS)
# Format: functional
# measurement.parameters: Rattus norvegicus
readout.kind: relative binding affinity (RBA)

Before answering, review these 3 worked examples.
C1=C(c2ccccc2)C(c2ccc(OCCN3CCCCCC3)cc2)Oc2ccccc21 (configuration not stated) = 153
C1=C(c2ccccc2)C(c2ccc(OCCN3CCCC3)cc2)Oc2ccccc21 (configuration not stated) = 134
COc1ccc2c(c1)OC(c1ccc(OCCN3CCCC3)cc1)C(c1ccccc1)=C2 (configuration not stated) = 66

P = C1=C(c2ccccc2)C(c2ccc(OCCN3CCCCC3)cc2)Oc2ccccc21 (configuration not stated)
Q = CN(C)CCOc1ccc(C2Oc3ccccc3C=C2c2ccccc2)cc1 (configuration not stated)
R = CC1=C(c2ccccc2)C(c2ccc(OCCN3CCCC3)cc2)Oc2ccccc21 (configuration not stated)
S = CCC1=C(c2ccccc2)C(c2ccc(OCCN3CCCC3)cc2)Oc2cc(OC)ccc21 (configuration not stated)
In: Given 4 compounds, produce a descending ranking by relative binding affinity (RBA). Please, when replying, give the labels in the order that was requested.
Out: P, R, Q, S
(P: 225, R: 150, Q: 98, S: 51)

----------
# tested.system: Estrogen receptor (Rattus norvegicus) (UniProt P06211+Q62986)
# assay.protocol: Estrogenic activity as mean uterine weight in rats on 10 ug dose
# Assay type: functional
readout.kind: Mean weight (mg)

Reference set, count: 7
Oc1ccc(C2Oc3ccccc3C=C2c2ccccc2)cc1 (centres undefined) = 12.6
C1=C(c2ccccc2)C(c2ccc(OCCN3CCCCCC3)cc2)Oc2ccccc21 (centres undefined) = 19.3
CCC1=C(c2ccccc2)C(c2ccc(OCCN3CCCC3)cc2)Oc2cc(OC)ccc21 (centres undefined) = 34.5
C1=C(c2ccccc2)C(c2ccccc2OCCN2CCCCC2)Oc2ccccc21 (centres undefined) = 11.1
CC1=C(c2ccccc2)C(c2ccc(OCCN3CCCC3)cc2)Oc2ccccc21 (centres undefined) = 27.2
CCCCNCC(O)COc1ccc(C2Oc3ccccc3C=C2c2ccccc2)cc1 (centres undefined) = 8.7
OCC(O)COc1ccc(C2Oc3ccccc3C=C2c2ccccc2)cc1 (centres undefined) = 20.7

P = C1=C(c2ccccc2)C(c2cccc(OCCN3CCCCC3)c2)Oc2ccccc21 (centres undefined)
Q = CN(C)CCOc1ccc(C2Oc3ccccc3C=C2c2ccccc2)cc1 (centres undefined)
In: Hi there, can you help? I need to know whether P or Q has lower measured Mean weight. Bench note: the answer is the label of the chosen record.
Out: P

----------
# tested.system: Estrogen receptor (Rattus norvegicus) (UniProt P06211+Q62986)
# assay.protocol: Antiestrogenic activity in presence of unlabeled estradiol as mean uterine weight in rats after 0.3 ug dose
# Format: functional
readout.kind: Mean weight (mg)

C1=C(c2ccccc2)C(c2ccccc2OCCN2CCCCC2)Oc2ccccc21 (stereo not drawn) = 43.1
Oc1ccc(C2Oc3ccccc3C=C2c2ccccc2)cc1 (stereo not drawn) = 45.5
OCC(O)COc1ccc(C2Oc3ccccc3C=C2c2ccccc2)cc1 (stereo not drawn) = 38.8
